- Tested on: SK-MEL-28
- Protocol Summary: Cytotoxicity against human SK-MEL-28 cells after 72 hrs by trypan blue exclusion assay
- Assay type: functional, cell-based
- Measurement Setup: SK-MEL-28, 72 h

[
  {
    "Compound": "CC(C)CCC[C@@H](C)[C@H]1CC[C@H]2[C@@H]3C[C@@H](NCCc4cnc[nH]4)[C@@]4(O)C[C@@H](O)CC[C@]4(C)[C@H]3CC[C@]12C [DENDROGENIN A]",
    "IC50": "2120 nM"
  }
]

* * *

- Tested on: P19
- Protocol Summary: Induction of dendrite out growth in IL-4/GMCSF-stimulated mouse P19 cells assessed as dendrite length at 100 nM after 48 hrs by light microscopy
- Format: functional
Calls of active or inactive are those of the source. The calls are words filed in the database; no cut-off is given here.
Measure Name: Activity

[
  {
    "Entry Smiles": "NCCCCNCCCN",
    "Measured": "inactive"
  },
  {
    "Entry Smiles": "CC(C)CCC[C@@H](C)[C@H]1CC[C@H]2C3=C[C@@H](NCCCNCCCCN)[C@@]4(O)C[C@@H](O)CC[C@]4(C)[C@H]3CC[C@]12C",
    "Measured": "> 100 um"
  },
  {
    "Entry Smiles": "CC(C)CCC[C@@H](C)[C@H]1CC[C@H]2C3=C[C@@H](NCCCCNCCCN)[C@@]4(O)C[C@@H](O)CC[C@]4(C)[C@H]3CC[C@]12C",
    "Measured": "50 um"
  },
  {
    "Entry Smiles": "CCCC(=O)O[C@H]1CC[C@]2(C)[C@H]3CC[C@]4(C)[C@@H]([C@H](C)CCCC(C)C)CC[C@H]4[C@@H]3C[C@@H](NCCc3c[nH]cn3)[C@@]2(O)C1",
    "Measured": "inactive"
  },
  {
    "Entry Smiles": "CC(C)CCC[C@@H](C)[C@H]1CC[C@H]2[C@@H]3C[C@@H](NCCc4cnc[nH]4)[C@@]4(O)C[C@@H](O)CC[C@]4(C)[C@H]3CC[C@]12C",
    "Measured": "50 um"
  },
  {
    "Entry Smiles": "CC(C)CCC[C@@H](C)[C@H]1CC[C@H]2[C@@H]3C[C@@H]4O[C@@]45C[C@@H](O)CC[C@]5(C)[C@H]3CC[C@]12C",
    "Measured": "inactive"
  },
  {
    "Entry Smiles": "NCCCNCCCCNCCCN",
    "Measured": "inactive"
  },
  {
    "Entry Smiles": "CC(C)CCC[C@@H](C)[C@H]1CC[C@H]2[C@@H]3C[C@@H](NCCCCN)[C@@]4(O)C[C@@H](O)CC[C@]4(C)[C@H]3CC[C@]12C",
    "Measured": "10 um"
  },
  {
    "Entry Smiles": "C[C@]12CC[C@H]3[C@@H](C[C@@H](NCCc4c[nH]cn4)[C@@]4(O)C[C@@H](O)CC[C@]34C)[C@@H]1CC[C@@H]2O",
    "Measured": "inactive"
  },
  {
    "Entry Smiles": "CC(C)CCC[C@@H](C)[C@H]1CC[C@H]2[C@@H]3C[C@@H](NCCCNCCCCN)[C@@]4(O)C[C@@H](O)CC[C@]4(C)[C@H]3CC[C@]12C",
    "Measured": "50 um"
  },
  {
    "Entry Smiles": "CC(C)CCC[C@@H](C)[C@H]1CC[C@H]2C3=C[C@@H](NCCc4c[nH]cn4)[C@@]4(O)C[C@@H](O)CC[C@]4(C)[C@H]3CC[C@]12C",
    "Measured": "5 um"
  },
  {
    "Entry Smiles": "CC(=O)O[C@H]1CC[C@]2(C)[C@H]3CC[C@]4(C)[C@@H]([C@H](C)CCCC(C)C)CC[C@H]4[C@@H]3C[C@@H](NCCc3c[nH]cn3)[C@@]2(O)C1",
    "Measured": "50 um"
  }
]

* * *

- Tested on: B16-F10
- Protocol Summary: Cytotoxicity against mouse B16F10 cells after 72 hrs by trypan blue exclusion assay
- Format: functional, cell-based
- Measurement Setup: B16-F10, 72 h
pIC50: −log10 of the molar value.
Measure Name: pIC50

[
  {
    "Entry Smiles": "CC(C)CCC[C@@H](C)[C@H]1CC[C@H]2[C@@H]3C[C@@H](NCCc4cnc[nH]4)[C@@]4(O)C[C@@H](O)CC[C@]4(C)[C@H]3CC[C@]12C",
    "Measure Name": "pIC50",
    "Measured": 6.17
  }
]

* * *

Reported pIC50 is given for each of the following compounds.
- System: P19
- Protocol Summary: Cytotoxicity against mouse P19 cells after 3 days by trypan blue exclusion assay
- Format: functional, cell-based
- Measurement Setup: Mus musculus, P19, 72 h; read-out: IC50
pIC50: −log10 of the molar value.
Measure Name: pIC50

[
  {
    "Compound": "CCCC(=O)O[C@H]1CC[C@]2(C)[C@H]3CC[C@]4(C)[C@@H]([C@H](C)CCCC(C)C)CC[C@H]4[C@@H]3C[C@@H](NCCc3c[nH]cn3)[C@@]2(O)C1",
    "Measured": 5.03
  },
  {
    "Compound": "CC(C)CCC[C@@H](C)[C@H]1CC[C@H]2[C@@H]3C[C@@H](NCCc4cnc[nH]4)[C@@]4(O)C[C@@H](O)CC[C@]4(C)[C@H]3CC[C@]12C [DENDROGENIN A]",
    "Measured": 5.62
  },
  {
    "Compound": "C[C@]12CC[C@H]3[C@@H](C[C@@H](NCCc4c[nH]cn4)[C@@]4(O)C[C@@H](O)CC[C@]34C)[C@@H]1CC[C@@H]2O",
    "Measured": 5.14
  }
]

* * *

- Tested on: U-937
- Protocol Summary: Induction of dendrite out growth in IL-4/GMCSF-stimulated human U937 cells assessed as dendrite length at 100 nM after 48 hrs by light microscopy
- Type: functional
Calls of active or inactive are those of the source. The rule behind the calls is not given here.

[
  {
    "Entry Smiles": "CC(C)CCC[C@@H](C)[C@H]1CC[C@H]2[C@@H]3C[C@@H](NCCc4cnc[nH]4)[C@@]4(O)C[C@@H](O)CC[C@]4(C)[C@H]3CC[C@]12C",
    "Tested Target": "U-937",
    "Activity": "50 um"
  },
  {
    "Entry Smiles": "CC(C)CCC[C@@H](C)[C@H]1CC[C@H]2[C@@H]3C[C@@H](NCCCNCCCCNCCCN)[C@@]4(O)C[C@@H](O)CC[C@]4(C)[C@H]3CC[C@]12C",
    "Tested Target": "U-937",
    "Activity": "<5 um"
  },
  {
    "Entry Smiles": "CC(C)CCC[C@@H](C)[C@H]1CC[C@H]2[C@@H]3C[C@@H](NCCCCN)[C@@]4(O)C[C@@H](O)CC[C@]4(C)[C@H]3CC[C@]12C",
    "Tested Target": "U-937",
    "Activity": "5 um"
  },
  {
    "Entry Smiles": "NCCCCN",
    "Tested Target": "U-937",
    "Activity": "inactive"
  },
  {
    "Entry Smiles": "CC(=O)O[C@H]1CC[C@]2(C)[C@H]3CC[C@]4(C)[C@@H]([C@H](C)CCCC(C)C)CC[C@H]4[C@@H]3C[C@@H](NCCc3c[nH]cn3)[C@@]2(O)C1",
    "Tested Target": "U-937",
    "Activity": "50 um"
  },
  {
    "Entry Smiles": "CC(C)CCC[C@@H](C)[C@H]1CC[C@H]2C3=C[C@@H]4O[C@@]45C[C@@H](O)CC[C@]5(C)[C@H]3CC[C@]12C",
    "Tested Target": "U-937",
    "Activity": "inactive"
  },
  {
    "Entry Smiles": "CC[C@H](CC[C@@H](C)[C@H]1CC[C@H]2[C@@H]3C[C@@H]4O[C@@]45C[C@@H](O)CC[C@]5(C)[C@H]3CC[C@]12C)C(C)C",
    "Tested Target": "U-937",
    "Activity": "inactive"
  },
  {
    "Entry Smiles": "CCCC(=O)O[C@H]1CC[C@]2(C)[C@H]3CC[C@]4(C)[C@@H]([C@H](C)CCCC(C)C)CC[C@H]4[C@@H]3C[C@@H]3O[C@@]32C1",
    "Tested Target": "U-937",
    "Activity": "inactive"
  },
  {
    "Entry Smiles": "CC[C@H](CC[C@@H](C)[C@H]1CC[C@H]2[C@@H]3C[C@@H](NCCc4c[nH]cn4)[C@@]4(O)C[C@@H](O)CC[C@]4(C)[C@H]3CC[C@]12C)C(C)C",
    "Tested Target": "U-937",
    "Activity": "50 um"
  },
  {
    "Entry Smiles": "CC(=O)O[C@H]1CC[C@]2(C)[C@H]3CC[C@]4(C)[C@@H]([C@H](C)CCCC(C)C)CC[C@H]4[C@@H]3C[C@@H]3O[C@@]32C1",
    "Tested Target": "U-937",
    "Activity": "inactive"
  },
  {
    "Entry Smiles": "CC(C)CCC[C@@H](C)[C@H]1CC[C@H]2C3=C[C@@H](NCCCNCCCCNCCCN)[C@@]4(O)C[C@@H](O)CC[C@]4(C)[C@H]3CC[C@]12C",
    "Tested Target": "U-937",
    "Activity": "<5 um"
  },
  {
    "Entry Smiles": "NCCCNCCCCNCCCN",
    "Tested Target": "U-937",
    "Activity": "inactive"
  }
]
